system_name: Vascular endothelial growth factor receptor 2 (Homo sapiens)
Sequence (P35968 whole entry): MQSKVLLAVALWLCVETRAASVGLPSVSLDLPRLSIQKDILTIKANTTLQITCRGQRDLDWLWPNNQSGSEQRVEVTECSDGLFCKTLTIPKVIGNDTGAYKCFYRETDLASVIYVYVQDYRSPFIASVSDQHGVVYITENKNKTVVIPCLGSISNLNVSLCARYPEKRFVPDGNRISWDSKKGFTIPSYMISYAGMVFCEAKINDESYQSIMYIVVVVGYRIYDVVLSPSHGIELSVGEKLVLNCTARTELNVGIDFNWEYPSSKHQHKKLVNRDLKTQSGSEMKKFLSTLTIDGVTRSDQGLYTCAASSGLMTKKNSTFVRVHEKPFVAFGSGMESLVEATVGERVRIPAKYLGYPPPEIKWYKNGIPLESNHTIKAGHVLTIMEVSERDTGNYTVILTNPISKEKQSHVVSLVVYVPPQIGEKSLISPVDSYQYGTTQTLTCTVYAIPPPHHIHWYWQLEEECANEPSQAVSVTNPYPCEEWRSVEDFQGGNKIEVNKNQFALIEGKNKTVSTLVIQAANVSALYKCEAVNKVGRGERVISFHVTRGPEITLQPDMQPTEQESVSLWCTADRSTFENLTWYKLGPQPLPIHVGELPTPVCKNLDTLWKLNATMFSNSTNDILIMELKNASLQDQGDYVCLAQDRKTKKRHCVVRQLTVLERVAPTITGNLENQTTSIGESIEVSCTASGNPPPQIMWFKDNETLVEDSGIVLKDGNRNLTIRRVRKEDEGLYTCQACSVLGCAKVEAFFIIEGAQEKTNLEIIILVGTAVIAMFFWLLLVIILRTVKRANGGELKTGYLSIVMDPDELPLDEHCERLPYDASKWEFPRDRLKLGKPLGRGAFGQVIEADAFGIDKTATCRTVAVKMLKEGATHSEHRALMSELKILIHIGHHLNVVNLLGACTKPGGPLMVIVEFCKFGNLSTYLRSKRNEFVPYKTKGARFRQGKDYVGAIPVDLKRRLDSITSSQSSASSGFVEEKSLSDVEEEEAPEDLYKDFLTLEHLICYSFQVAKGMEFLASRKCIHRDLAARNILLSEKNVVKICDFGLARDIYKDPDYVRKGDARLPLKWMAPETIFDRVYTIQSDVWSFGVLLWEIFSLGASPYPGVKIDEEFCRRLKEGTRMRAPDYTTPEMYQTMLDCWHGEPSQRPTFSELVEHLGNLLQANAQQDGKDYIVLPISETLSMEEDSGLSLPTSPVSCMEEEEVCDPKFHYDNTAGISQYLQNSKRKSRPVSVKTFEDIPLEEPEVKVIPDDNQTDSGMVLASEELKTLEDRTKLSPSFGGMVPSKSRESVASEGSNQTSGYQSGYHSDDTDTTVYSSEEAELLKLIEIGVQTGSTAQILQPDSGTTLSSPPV
assay_method_text: Inhibition of recombinant human VEGFR-2 using poly (Glu,Tyr) 4:1 as substrate in presence of ATP
observation_type: IC50 (nM)
Answers are plain numbers, in nM.

Here are 2 compounds. What values of IC50 were reported for them?
1. C/C(=N\N1C(=O)CNC1=S)c1ccc(O)cc1O
2. CCOC(=O)/C(C#N)=C(\c1ccc(O)cc1)N1CC(=O)N(/N=C(\C)c2ccc(O)cc2O)C1=S

Out:
1: 25.1; 2: 19.8

* * *

system_name: Vascular endothelial growth factor receptor 2 (Homo sapiens)
assay_method_text: Inhibition of recombinant VEGFR2 (unknown origin) using poly (Glu,Tyr) 4:1 as substrate measured after 45 mins in presence of ATP by microplate reader analysis
observation_type: IC50 (nM)
Give bare numbers, in nM.

entry_smiles	observation_type	observed_result
CN(C)c1ccc(/C=C2\N=C(c3ccccc3)N(c3ccc(S(N)(=O)=O)cc3)C2=O)cc1	IC50	200

Your task in this section: give IC50 for each listed record.
1. CN(C)c1ccc(/C=C2\N=C(c3ccc(Cl)cc3)N(c3ccc(S(=O)(=O)Nc4nccs4)cc3)C2=O)cc1
2. CN(C)c1ccc(/C=C2\N=C(c3ccc(Cl)cc3)N(c3ccc(C(=O)OCC(=O)Nc4ccc(S(N)(=O)=O)cc4)cc3)C2=O)cc1

Out:
1: 100; 2: 360

Reference source: ChEMBL document CHEMBL5532719
